Overview of reported melting point across a group of compounds:

CCNC(=O)NCCc1ccc(Br)cc1 [Compound 11g, 1-(4-bromophenethyl)-3-ethylurea]: 137 to 139 °C
CCNC(=O)NC1Cc2ccccc2C1: 117 °C
CCNC(=S)NCCCc1ccccc1: 51 to 53 °C
CC(C)[C@@H]1CC[C@@H](C)C[C@H]1OC(=O)NCCc1ccccn1: 59 to 63 °C
CCNC(=O)NCCc1ccc(N)cc1: 101 to 103 °C
CCNC(=S)NC1Cc2ccccc2C1: 87 to 91 °C
CCNC(=S)N1CCCc2ccccc21: 55 to 57 °C
CCNC(=O)NCCc1ccccc1: 75 to 77 °C

Here is the next item to consider.
# lookup: melting point of CCNC(=S)NCCc1ccccc1
56 to 58 °C
